Origin of values: patent US12390472B2

ASSAY_PROTOCOL: In vivo pharmacokinetic properties in mice
Parameters: species or system mouse
MEASUREMENT_CONDITIONS: mouse, plasma, oral; male ICR mice; single intravenous 5 mg/kg and intragastric 250 mg/kg study; read-out: Tmax
MEASURED_PARAMETER: Tmax
Give the number first and the unit second.

Which measured Tmax value corresponds to CCN(c1cc(O[C@H]2C[C@H](N3CCCCC3)C2)cc(C(=O)NCc2c(OC)cc(C)[nH]c2=O)c1C)C1CCC(F)(F)CC1 [Example 91] ?
100 min

Same read-out for CCN(c1cc(O[C@H]2C[C@H](N3CCOCC3)C2)cc(C(=O)NCc2c(C)cc(C)[nH]c2=O)c1C)C1CCOCC1 [Example 4] ?
19.8 min

# iterate: CCN(c1cc(O[C@H]2C[C@H](N3CCC(C)CC3)C2)cc(C(=O)NCc2c(C)cc(C)[nH]c2=O)c1Cl)C1CCOCC1 [Example 59]
48 min

Same for CCN(c1cc(O[C@H]2C[C@H](N3C[C@@H](C)O[C@@H](C)C3)C2)cc(C(=O)NCc2c(OC)cc(C)[nH]c2=O)c1C)C1CC2CCC(C1)O2 (stereo partly drawn) [Example 88]
30 min

Please give the result for CCN(c1cc(O[C@H]2C[C@H](N3C[C@@H](C)O[C@@H](C)C3)C2)cc(C(=O)NCc2c(C)cc(C)[nH]c2=O)c1C)C1CC2CCC(C1)O2 (stereo partly drawn) [Example 47] too.
40.2 min

Same question, CCN(c1cc(O[C@H]2C[C@H](N3CCCCC3)C2)cc(C(=O)NCc2c(OC)cc(C)[nH]c2=O)c1C)C1CCOCC1 [Example 93] this time
19.8 min
